# SYSTEM TESTED: T1, 4H570-bH
# T1 chain: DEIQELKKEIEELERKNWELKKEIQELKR
# TEST PROTOCOL: two-hybrid library CCNG1;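 also: natural log of median RNA to DNA barcode read ratio; higher means stronger binding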
ASSAY ENDPOINT: interaction score

>>> readout_value("DKNQELKKKNEELEREIWELEKKIQELKR [4H3974-bH]")
-0.965
>>> readout_value("DKNQELKKEIEELERKIWELKKENQELKR [4H3628-bH]")
-1.36
>>> readout_value("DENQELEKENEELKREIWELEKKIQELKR [4H1222-bH]")
0.693
>>> readout_value("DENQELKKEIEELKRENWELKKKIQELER [4H1629-bH]")
-1.69
>>> readout_value("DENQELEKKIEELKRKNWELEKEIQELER [4H1393-bH]")
-0.453
>>> readout_value("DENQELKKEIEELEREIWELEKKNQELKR [4H1544-bH]")
0.232
>>> readout_value("DKNQELKKKIEELERENWELEKEIQELKR [4H3858-bH]")
1.32
>>> readout_value("DEIQELKKEIEELERKNWELKKEIQELKR [4H570-bH]")
1.19
>>> readout_value("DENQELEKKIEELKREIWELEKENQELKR [4H1348-bH]")
-0.807
>>> readout_value("DKNQELKKENEELKRKIWELKKEIQELER [4H3817-bH]")
-0.71
>>> readout_value("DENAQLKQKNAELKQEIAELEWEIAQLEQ [4H1985-bA]")
-0.714
>>> readout_value("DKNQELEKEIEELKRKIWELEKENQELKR [4H3172-bH]")
0.871
>>> readout_value("DKNQELKKEIEELERKIWELKKKNQELER [4H3631-bH]")
-1.5
>>> readout_value("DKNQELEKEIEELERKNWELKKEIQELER [4H3129-bH]")
-1.61
